B1: Retinoic acid receptor RXR-alpha, residues 132 to 208; numbered along this chain, P19793 (parent)
chain: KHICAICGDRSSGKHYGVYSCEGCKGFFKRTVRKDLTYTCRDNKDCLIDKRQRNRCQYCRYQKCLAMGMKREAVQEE

Variants of: B1
Experiment: abundance fitness (aPCA) (normalised: wild type 0, dead -1); higher = more abundant; growth selection in yeast, the domain comes from the species named
Details: Homo sapiens
Classify as follows. Reported abundance fitness greater than or equal to -0.007: true. Reported abundance fitness below: false.

mutation: S12I
label-value: false

mutation: G26D
label-value: true

mutation: T39C
label-value: true

mutation: C21I
label-value: false

mutation: T37W
label-value: false

[in] Reported abundance fitness at or above -0.007? S20P
[out] false

[in] Can K14M be said to have abundance fitness at or above -0.007?
[out] true

[in] Confirm if abundance fitness reported for the variant A5W is -0.007 or above.
[out] true

[in] Threshold query (abundance fitness >= -0.007) on H2W
[out] false

[in] Given L36M , state whether its abundance fitness is at least -0.007.
[out] false

[in] // inclusive: abundance fitness at least -0.007? input: F28M
[out] true
